Measured pIC50 of individual entries
subjectOfTest: Cyclin-dependent kinase 12 (Homo sapiens)
Sequence (Q9NYV4 whole entry): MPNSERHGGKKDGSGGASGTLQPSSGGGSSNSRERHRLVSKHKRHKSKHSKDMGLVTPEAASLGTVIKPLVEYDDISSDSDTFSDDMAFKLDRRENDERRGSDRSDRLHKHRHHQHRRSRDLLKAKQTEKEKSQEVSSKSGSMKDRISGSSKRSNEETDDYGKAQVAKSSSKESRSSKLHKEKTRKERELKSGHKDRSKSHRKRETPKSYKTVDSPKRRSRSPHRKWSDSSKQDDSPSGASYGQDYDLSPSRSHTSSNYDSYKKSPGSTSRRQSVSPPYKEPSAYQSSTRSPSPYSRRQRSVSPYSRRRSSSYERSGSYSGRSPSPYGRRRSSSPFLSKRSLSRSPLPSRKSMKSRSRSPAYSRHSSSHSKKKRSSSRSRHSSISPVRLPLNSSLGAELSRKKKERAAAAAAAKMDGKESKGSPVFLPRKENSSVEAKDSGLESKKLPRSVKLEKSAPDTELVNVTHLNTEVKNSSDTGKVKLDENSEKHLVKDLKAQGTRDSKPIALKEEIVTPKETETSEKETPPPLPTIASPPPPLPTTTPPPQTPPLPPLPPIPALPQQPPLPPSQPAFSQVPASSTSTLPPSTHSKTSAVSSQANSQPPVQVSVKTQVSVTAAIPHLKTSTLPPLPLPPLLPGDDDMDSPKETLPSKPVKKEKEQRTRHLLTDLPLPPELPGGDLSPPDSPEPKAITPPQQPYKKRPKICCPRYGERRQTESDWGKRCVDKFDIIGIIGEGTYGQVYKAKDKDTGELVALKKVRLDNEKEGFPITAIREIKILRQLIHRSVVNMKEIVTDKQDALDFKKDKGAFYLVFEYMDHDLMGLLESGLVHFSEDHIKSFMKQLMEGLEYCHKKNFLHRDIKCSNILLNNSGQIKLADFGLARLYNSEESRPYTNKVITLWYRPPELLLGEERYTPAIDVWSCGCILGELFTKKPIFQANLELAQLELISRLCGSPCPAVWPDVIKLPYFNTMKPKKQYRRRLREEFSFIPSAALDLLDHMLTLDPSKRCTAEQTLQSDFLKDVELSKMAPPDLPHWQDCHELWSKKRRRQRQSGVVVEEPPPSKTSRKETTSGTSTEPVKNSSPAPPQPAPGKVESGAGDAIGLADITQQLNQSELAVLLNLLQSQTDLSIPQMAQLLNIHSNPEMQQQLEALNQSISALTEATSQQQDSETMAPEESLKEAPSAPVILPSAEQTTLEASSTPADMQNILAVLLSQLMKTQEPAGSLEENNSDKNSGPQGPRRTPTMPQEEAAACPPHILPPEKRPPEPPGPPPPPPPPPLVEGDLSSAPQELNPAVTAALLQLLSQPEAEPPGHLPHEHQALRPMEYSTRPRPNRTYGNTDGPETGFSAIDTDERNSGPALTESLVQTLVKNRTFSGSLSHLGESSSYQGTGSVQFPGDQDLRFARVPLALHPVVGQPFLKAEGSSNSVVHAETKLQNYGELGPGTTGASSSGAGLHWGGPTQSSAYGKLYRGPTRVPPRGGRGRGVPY
// field semantics: pIC50 = negative decimal log of concentration (mol/L)

Solved cases (2 shown):
smilesstring=C=CC(=O)N1CCC=C(c2ccc(CC(=O)Nc3cc(C4CC4)[nH]n3)cn2)C1 reported=7.64
smilesstring=CC#CC(=O)N1CCC=C(c2ccc(CC(=O)Nc3cc(C4CC4)[nH]n3)cn2)C1 reported=7.43

From here, focus on the item given below.
IN: Item: CCN(CC)C/C=C/C(=O)N1CC=C(c2ccc([C@H](C)C(=O)Nc3cc(C4CC4)[nH]n3)cc2)CC1 Test system: Cyclin-dependent kinase 12 (Homo sapiens) Read-out: pIC50 Value: ?
OUT: 6.05

Hello, the source for this data is ChEMBL document CHEMBL4742395, in case you need it.
